# ASSAY TARGET: Cytochrome P450 2D6 (Homo sapiens)
# Sequence (P10635 whole entry): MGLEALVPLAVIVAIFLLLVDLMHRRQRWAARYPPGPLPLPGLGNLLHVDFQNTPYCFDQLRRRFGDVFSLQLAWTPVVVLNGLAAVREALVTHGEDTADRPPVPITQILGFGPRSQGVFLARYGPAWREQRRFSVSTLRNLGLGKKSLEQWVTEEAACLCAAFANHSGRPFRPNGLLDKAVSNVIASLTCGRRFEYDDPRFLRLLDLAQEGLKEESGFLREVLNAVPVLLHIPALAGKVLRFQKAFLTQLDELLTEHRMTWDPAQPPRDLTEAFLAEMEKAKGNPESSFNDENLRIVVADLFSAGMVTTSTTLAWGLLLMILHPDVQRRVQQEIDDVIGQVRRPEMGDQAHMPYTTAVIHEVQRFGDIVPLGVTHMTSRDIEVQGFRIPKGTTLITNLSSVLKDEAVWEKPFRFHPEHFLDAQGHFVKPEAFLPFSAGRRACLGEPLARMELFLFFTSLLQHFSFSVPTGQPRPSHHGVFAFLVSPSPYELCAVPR
QUANTITY KIND: IC50

// returns IC50 for COc1ccc2c(O[C@H]3CCN4C(=O)N(C)CCCCC=C[C@@H]5C[C@@]5(C(=O)NS(=O)(=O)C5(C)CC5)NC(=O)[C@@H]4C3)cc(-c3nc(C(F)(F)F)cs3)nc2c1C with Cytochrome P450 2D6 (Homo sapiens); value = ≥ 10 µM

====

# ASSAY SUMMARY: Volume of distribution in CD-1 mouse at 2 mg/kg, iv administered as single dose measured after 24 hrs
# Assay type: ADME, organism-based
# CONDITION PARAMETERS: in vivo
QUANTITY KIND: Vd
Please report the result as a number followed by the unit.

Input COc1ccc2c(O[C@H]3CCN4C(=O)N(C)CCCCC=C[C@@H]5C[C@@]5(C(=O)NS(=O)(=O)C5(C)CC5)NC(=O)[C@@H]4C3)cc(-c3nc(C(F)(F)F)cs3)nc2c1C . Output Vd: 4.4 L/kg
